Ref: patent US20230050965A1

EXPERIMENTAL_PROTOCOL: Oral bioavailability after oral dosing in rat
DETAILS: in vivo, Sprague Dawley rats, IV 1 mg/kg, PO 5 mg/kg, read-out: F % (oral bioavailability)
ASSAY_READOUT: bioavailability (%)
A number alone suffices; assume %.

>  <COMPOUND_STRUCTURE_STRING>
CCOc1cc(-c2ccc(F)cn2)c(C2CC2)cc1CN1CCC2(CC1)CN(c1ccc(P(=O)(O)O)cc1)C(=O)O2

>  <OBSERVED_VALUE>
0.2

$$$$
>  <COMPOUND_STRUCTURE_STRING>
CCOc1cc(-c2ccc(F)cc2)c(C2CC2)cc1CN1CCC2(CC1)CN(c1ccc(P(=O)(O)O)cc1)C(=O)O2

>  <OBSERVED_VALUE>
0.9

$$$$
>  <COMPOUND_STRUCTURE_STRING>
CCOc1cc(-c2ccc(F)cc2)c(C2CC2)cc1CN1CCC2(CC1)CN(c1ccc(P(C)(=O)O)cc1)C(=O)O2

>  <OBSERVED_VALUE>
8.7

$$$$

[Q] // lookup bioavailability for `CCOc1cc(-c2ccc(F)cc2)c(C2CC2)cc1CN1CCC2(CC1)CN(c1ccc([PH](=O)O)cc1)C(=O)O2`
[A] 1.9

----------
EXPERIMENTAL_SYSTEM: human SSTR5 (Homo sapiens, UniProt P35346)
Sequence (P35346 whole entry): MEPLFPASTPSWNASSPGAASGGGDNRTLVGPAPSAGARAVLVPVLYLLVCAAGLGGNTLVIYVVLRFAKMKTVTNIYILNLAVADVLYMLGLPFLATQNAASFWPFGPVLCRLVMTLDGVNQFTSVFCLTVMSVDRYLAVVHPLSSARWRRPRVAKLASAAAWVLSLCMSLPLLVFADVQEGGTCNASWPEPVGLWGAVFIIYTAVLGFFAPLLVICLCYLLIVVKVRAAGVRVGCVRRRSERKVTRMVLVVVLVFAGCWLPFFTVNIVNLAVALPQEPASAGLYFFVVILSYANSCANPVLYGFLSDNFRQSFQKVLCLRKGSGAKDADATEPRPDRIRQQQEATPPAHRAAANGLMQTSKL
EXPERIMENTAL_PROTOCOL: Inositol phosphate (IP1) accumulation assay, antagonist mode
DETAILS: CHO-K1 cells stably co-expressing human SSTR5 with Gqi5; pre-incubation with antagonist, then SST28 agonist; IP1 HTRF readout
Protocol: Inositol Phosphate Accumulation Assay CHO-K1 cells stably co-expressing human SSTR5 with Gqi5 were developed using Jump-In technology from Thermo-Fisher. […] TR-FRET was measured using a ClarioSTAR plate reader, calculating the ratio between emissions at 665 nm and 620 nm (HTRF ratio). […] IC50 and maximal inhibition values were determined using a standard 4-parameter fit.
A collection of compounds and their measured IC50

Solved entries (count: 3):
>  <COMPOUND_STRUCTURE_STRING>
CCOc1cc(-c2ccc(F)cc2)c(C2CC2)cc1CN1CCN(C(=O)Cc2ccc(P(=O)(O)OCC)cc2)CC1

>  <IC50>
≤ 100 nM

$$$$
>  <COMPOUND_STRUCTURE_STRING>
CCOc1cc(-c2ccc(F)cc2)c(C2CC2)cc1CN1CCC2(CC1)CC(=O)N(c1ccc(P(C)(=O)O)cc1)C2

>  <IC50>
≤ 100 nM

$$$$
>  <COMPOUND_STRUCTURE_STRING>
CCOc1cc(-c2ccc(F)cc2)c(C2CC2)cc1CN1CCN(S(=O)(=O)Cc2ccc(P(=O)(O)O)cc2)CC1

>  <IC50>
≤ 100 nM

$$$$

Next:
[Q] Bench note: what IC50 did `CCOc1cc(C(=O)OC)c(C2CC2)cc1CN1CCC2(CC1)CC(=O)N(c1ccc(CCCCNC(N)=O)cc1)C2` show?
[A] 1000 to 5000 nM

----------
Each item that follows carries a reported IC50.
EXPERIMENTAL_SYSTEM: UniProtKB P35346
EXPERIMENTAL_PROTOCOL: Inositol phosphate (IP1) accumulation assay, antagonist mode
DETAILS: CHO-K1 cells stably co-expressing human SSTR5 with Gqi5; pre-incubation with antagonist, then SST28 agonist; IP1 HTRF readout
Procedure: Inositol Phosphate Accumulation Assay CHO-K1 cells stably co-expressing human SSTR5 with Gqi5 were developed using Jump-In technology from Thermo-Fisher. […] TR-FRET was measured using a ClarioSTAR plate reader, calculating the ratio between emissions at 665 nm and 620 nm (HTRF ratio). […] IC50 and maximal inhibition values were determined using a standard 4-parameter fit.

>  <COMPOUND_STRUCTURE_STRING>
CCOc1cc(C#N)c(C2CC2)cc1CN1CCC2(CC1)CN(c1ccc(P(C)(=O)O)cc1)C(=O)O2

>  <EXPERIMENTAL_SYSTEM>
UniProtKB P35346

>  <IC50>
≤ 100 nM

$$$$
>  <COMPOUND_STRUCTURE_STRING>
CCOc1cc(-c2ccc(F)cc2)c(C2CC2)cc1CN1CCC2(CC1)CN(C13CC(CP(=O)(O)O)(C1)C3)C(=O)O2

>  <EXPERIMENTAL_SYSTEM>
UniProtKB P35346

>  <IC50>
≤ 100 nM

$$$$
>  <COMPOUND_STRUCTURE_STRING>
CCOc1cc(C(=O)OC)c(C2CC2)cc1CN1CCC2(CC1)CC(=O)N(c1ccc(CCCCNC(=O)NC(CO)(CO)CO)cc1)C2

>  <EXPERIMENTAL_SYSTEM>
UniProtKB P35346

>  <IC50>
> 5000 nM

$$$$

[Q] Endpoint output: IC50 of `CCOc1cc(C(=O)OC(C)C)c(C2CC2)cc1CN1CCC2(CC1)CC(=O)N(c1ccc(P(=O)(O)O)cc1)C2` . Value?
[A] 100 to 1000 nM

[Q] Requested field: IC50. Item: `CCOc1cc(C(=O)OC)c(C2CC2)cc1CN1CCC2(CC1)CC(=O)N(c1ccc(P(=O)(O)O)cc1)C2`
[A] > 5000 nM

[Q] So what's the measured IC50 for this one? `CCOc1cc(C(=O)OC)c(C2CC2)cc1CN1CCC2(CC1)CN(c1ccc(P(=O)(O)O)cc1)C(=O)N2`
[A] ≤ 100 nM

[Q] Consider the compound `CCOc1cc(-c2ccc(F)cc2)c(C2CC2)cc1CN1CCC2(CC1)CN(c1ccc(P(=O)(O)OCC)cc1)C(=O)N2` and give its measured IC50.
[A] ≤ 100 nM

----------
EXPERIMENTAL_SYSTEM: human SSTR5 (Homo sapiens)
EXPERIMENTAL_PROTOCOL: Inositol phosphate (IP1) accumulation assay, antagonist mode
DETAILS: CHO-K1 cells stably co-expressing human SSTR5 with Gqi5; pre-incubation with antagonist, then SST28 agonist; IP1 HTRF readout
pIC50: −log10 of the molar value.
Catalogue of molecules with associated pIC50

Take a look at these entries with their results.
>  <MOLECULE>
CCOc1cc(-c2ccc(F)cc2)c(C2CC2)cc1CN1CCC2(CC1)CN([C@H]1CC[C@@H](P(=O)(O)O)CC1)C(=O)O2 (single isomer, unassigned) [Compound 33]

>  <ASSAY_READOUT>
pIC50

>  <OBSERVED_VALUE>
≥ 7.00

$$$$
>  <MOLECULE>
CCOc1cc(-c2ccc(F)cc2)c(C2CCC2)cc1CN1CCC2(CC1)CN(c1ccc(P(=O)(O)O)cc1)C(=O)O2 [Compound 36]

>  <ASSAY_READOUT>
pIC50

>  <OBSERVED_VALUE>
≥ 7.00

$$$$
>  <MOLECULE>
CCOc1cc(-c2ccc(F)cc2)c(C2CC2)cc1CN1CCC2(CC1)CN(c1ccc([PH](=O)O)cc1)C(=O)O2 [Compound 3]

>  <ASSAY_READOUT>
pIC50

>  <OBSERVED_VALUE>
≥ 7.00

$$$$

[Q] Item: CCOc1cc(-c2ccc(F)cc2)c(C2CC2)cc1CN1CCN(S(=O)(=O)Cc2ccc(P(=O)(O)OCC)cc2)CC1 [Compound 39] Test system: human SSTR5 (Homo sapiens) Read-out: pIC50 Value: ?
[A] ≥ 7.00

[Q] Record lookup: for human SSTR5 (Homo sapiens), what pIC50 belongs to CCOc1cc(C(=O)OC)c(C2CC2)cc1CN1CCC2(CC1)CC(=O)N(c1ccc(CCCCNC(=O)CO)cc1)C2 [Compound 19] ?
[A] 5.30 to 6.00

[Q] Lab request: please report pIC50 under test system human SSTR5 (Homo sapiens) for CCOc1cc(C(=O)OC)c(C2CC2)cc1CN1CCN(C(=O)Oc2ccc(CNC[C@H](O)[C@@H](O)[C@H](O)[C@H](O)CO)cc2)CC1 [Compound 42]
[A] < 5.30
